Cited source: paper PMC7738869

# ASSAY: Pharmacokinetic study
# Type: in vivo, SD rats
# SETTINGS: male, SD, rat, plasma, iv, 3 mg/kg, i.v. 3 mg/kg, 4.00 h; read-out: Concentration in rat plasma, individual animals 4-6
METRIC: concentration at 4 h (ng/mL)
Answer with a number only, understood to be in ng/mL.

I would be grateful if you could share the reported concentration at 4 h for C[C@H](Oc1ccc(-c2nc3nc(C4=CCN(C(=O)OC(C)(C)C)CC4)ccc3[nH]2)cc1)c1ccccc1 [W2014-S] .
2.9

----------
# ASSAY: Pharmacokinetic study
# Type: in vivo, SD rats
# SETTINGS: male, SD, rat, plasma, iv, 3 mg/kg, i.v. 3 mg/kg, 24.0 h; read-out: Concentration in rat plasma, mean
# Procedure: W2014-S was given to SD rats (male, 230-260g, n = 6) by gavage and intravenous administration. The rats were fasted for 12 h before administration and remained fasting for 2 h. For oral gavage, W2014-S was dissolved in DMSO/0.5% HPMC (5/95, v/v/), and W2014-S was dissolved in DMSO/EtOH/PEG300/0.9% NaCl (5/5/40/50, v/v/v/v) for intravenous administration. The pharmacokinetic (PK) profiles were next evaluated in SD rats.
METRIC: concentration at 24 h (ng/mL)
Answer with a number only, understood to be in ng/mL.

I would be grateful if you could share the reported concentration at 24 h for C[C@H](Oc1ccc(-c2nc3nc(C4=CCN(C(=O)OC(C)(C)C)CC4)ccc3[nH]2)cc1)c1ccccc1 [W2014-S] .
1.13

----------
# ASSAY: Pharmacokinetic study
# Type: in vivo, SD rats
# SETTINGS: male, SD, rat, plasma, iv, 3 mg/kg, i.v. 3 mg/kg, 0.75 h; read-out: Concentration in rat plasma, mean
METRIC: concentration at 0.75 h (ng/mL)
Answer with a number only, understood to be in ng/mL.

I would be grateful if you could share the reported concentration at 0.75 h for C[C@H](Oc1ccc(-c2nc3nc(C4=CCN(C(=O)OC(C)(C)C)CC4)ccc3[nH]2)cc1)c1ccccc1 [W2014-S] .
68.8

----------
# ASSAY: Pharmacokinetic study
# Assay type: in vivo, SD rats
# SETTINGS: male, SD, rat, plasma, iv, 3 mg/kg, i.v. 3 mg/kg, 2.00 h; read-out: Concentration in rat plasma, individual animals 4-6
METRIC: concentration at 2 h
I'd appreciate it if you included the unit after the number.

I would be grateful if you could share the reported concentration at 2 h for C[C@H](Oc1ccc(-c2nc3nc(C4=CCN(C(=O)OC(C)(C)C)CC4)ccc3[nH]2)cc1)c1ccccc1 .
13.4 ng/mL

----------
# ASSAY: Pharmacokinetic study
# Format: in vivo, SD rats
# SETTINGS: male, SD, rat, plasma, po, 10 mg/kg, p.o. 10 mg/kg, 0.25 h; read-out: Concentration in rat plasma, mean
METRIC: concentration at 0.25 h (ng/mL)
Answer with a number only, understood to be in ng/mL.

I would be grateful if you could share the reported concentration at 0.25 h for C[C@H](Oc1ccc(-c2nc3nc(C4=CCN(C(=O)OC(C)(C)C)CC4)ccc3[nH]2)cc1)c1ccccc1 [W2014-S] .
19.6

----------
# ASSAY: Pharmacokinetic study
# Format: in vivo, SD rats
# SETTINGS: male, SD, rat, plasma, iv, 3 mg/kg, i.v. 3 mg/kg, 0.25 h; read-out: Concentration in rat plasma, mean
# Procedure: W2014-S was given to SD rats (male, 230-260g, n = 6) by gavage and intravenous administration. The rats were fasted for 12 h before administration and remained fasting for 2 h. For oral gavage, W2014-S was dissolved in DMSO/0.5% HPMC (5/95, v/v/), and W2014-S was dissolved in DMSO/EtOH/PEG300/0.9% NaCl (5/5/40/50, v/v/v/v) for intravenous administration. The pharmacokinetic (PK) profiles were next evaluated in SD rats.
METRIC: concentration at 0.25 h (ng/mL)
Answer with a number only, understood to be in ng/mL.

I would be grateful if you could share the reported concentration at 0.25 h for C[C@H](Oc1ccc(-c2nc3nc(C4=CCN(C(=O)OC(C)(C)C)CC4)ccc3[nH]2)cc1)c1ccccc1 [W2014-S] .
146

----------
# ASSAY: Pharmacokinetic study
# Format: in vivo, SD rats
# SETTINGS: male, SD, rat, plasma, po, 10 mg/kg, p.o. 10 mg/kg, 8.00 h
METRIC: concentration at 8 h
I'd appreciate it if you included the unit after the number.

I would be grateful if you could share the reported concentration at 8 h for C[C@H](Oc1ccc(-c2nc3nc(C4=CCN(C(=O)OC(C)(C)C)CC4)ccc3[nH]2)cc1)c1ccccc1 .
0.633 ng/mL

----------
# ASSAY: Pharmacokinetic study
# Type: in vivo, SD rats
# SETTINGS: male, Sprague-Dawley (SD), rat, plasma; SD rats, 10 mg/kg po vs 3 mg/kg iv
METRIC: bioavailability
I'd appreciate it if you included the unit after the number.

I would be grateful if you could share the reported bioavailability for C[C@H](Oc1ccc(-c2nc3nc(C4=CCN(C(=O)OC(C)(C)C)CC4)ccc3[nH]2)cc1)c1ccccc1 .
7.39%

----------
# ASSAY: Pharmacokinetic study
# Format: in vivo, SD rats
# SETTINGS: male, Sprague-Dawley (SD), rat, plasma, po, 10 mg/kg, SD rats, 10 mg/kg po, mean
METRIC: half-life (h)
Answer with a number only, understood to be in h.

I would be grateful if you could share the reported half-life for C[C@H](Oc1ccc(-c2nc3nc(C4=CCN(C(=O)OC(C)(C)C)CC4)ccc3[nH]2)cc1)c1ccccc1 [W2014-S] .
1.46

----------
# ASSAY: Pharmacokinetic study
# Assay type: in vivo, SD rats
# SETTINGS: male, SD, rat, plasma, iv, 3 mg/kg, i.v. 3 mg/kg, individual animals 4-6
METRIC: half-life
I'd appreciate it if you included the unit after the number.

I would be grateful if you could share the reported half-life for C[C@H](Oc1ccc(-c2nc3nc(C4=CCN(C(=O)OC(C)(C)C)CC4)ccc3[nH]2)cc1)c1ccccc1 .
15.3 h

----------
# ASSAY: Pharmacokinetic study
# Format: in vivo, SD rats
# SETTINGS: male, Sprague-Dawley (SD), rat, plasma, po, 10 mg/kg, SD rats, 10 mg/kg po, mean; read-out: AUC0-inf
METRIC: AUC(0-inf)
I'd appreciate it if you included the unit after the number.

I would be grateful if you could share the reported AUC(0-inf) for C[C@H](Oc1ccc(-c2nc3nc(C4=CCN(C(=O)OC(C)(C)C)CC4)ccc3[nH]2)cc1)c1ccccc1 .
56.1 ng·h/mL

----------
# ASSAY: Pharmacokinetic study
# Assay type: in vivo, SD rats
# SETTINGS: male, SD, rat, plasma, iv, 3 mg/kg, rat, i.v. 3 mg/kg, individual animals 4-6; read-out: AUCINF_obs
# Protocol: W2014-S was given to SD rats (male, 230-260g, n = 6) by gavage and intravenous administration. The rats were fasted for 12 h before administration and remained fasting for 2 h. For oral gavage, W2014-S was dissolved in DMSO/0.5% HPMC (5/95, v/v/), and W2014-S was dissolved in DMSO/EtOH/PEG300/0.9% NaCl (5/5/40/50, v/v/v/v) for intravenous administration. The pharmacokinetic (PK) profiles were next evaluated in SD rats.
METRIC: AUC(0-inf) (ng·h/mL)
Answer with a number only, understood to be in ng·h/mL.

I would be grateful if you could share the reported AUC(0-inf) for C[C@H](Oc1ccc(-c2nc3nc(C4=CCN(C(=O)OC(C)(C)C)CC4)ccc3[nH]2)cc1)c1ccccc1 .
228

----------
# ASSAY: Pharmacokinetic study
# Format: in vivo, SD rats
# SETTINGS: male, SD, rat, plasma, iv, 3 mg/kg, i.v. 3 mg/kg, 0.05 h; read-out: Concentration in rat plasma, individual animals 4-6
METRIC: concentration at 0.05 h (ng/mL)
Answer with a number only, understood to be in ng/mL.

I would be grateful if you could share the reported concentration at 0.05 h for C[C@H](Oc1ccc(-c2nc3nc(C4=CCN(C(=O)OC(C)(C)C)CC4)ccc3[nH]2)cc1)c1ccccc1 .
454

----------
# ASSAY: Pharmacokinetic study
# Assay type: in vivo, SD rats
# SETTINGS: male, Sprague-Dawley (SD), rat, plasma; SD rats, 3 mg/kg iv, mean; read-out: Vss
METRIC: Vd (L/kg)
Answer with a number only, understood to be in L/kg.

I would be grateful if you could share the reported Vd for C[C@H](Oc1ccc(-c2nc3nc(C4=CCN(C(=O)OC(C)(C)C)CC4)ccc3[nH]2)cc1)c1ccccc1 .
77.5
